For each record, write down the corresponding IC50.
# SYSTEM_UNDER_TEST: GST-PTP1B (Homo sapiens, UniProt P18031)
# Sequence (P18031 whole entry): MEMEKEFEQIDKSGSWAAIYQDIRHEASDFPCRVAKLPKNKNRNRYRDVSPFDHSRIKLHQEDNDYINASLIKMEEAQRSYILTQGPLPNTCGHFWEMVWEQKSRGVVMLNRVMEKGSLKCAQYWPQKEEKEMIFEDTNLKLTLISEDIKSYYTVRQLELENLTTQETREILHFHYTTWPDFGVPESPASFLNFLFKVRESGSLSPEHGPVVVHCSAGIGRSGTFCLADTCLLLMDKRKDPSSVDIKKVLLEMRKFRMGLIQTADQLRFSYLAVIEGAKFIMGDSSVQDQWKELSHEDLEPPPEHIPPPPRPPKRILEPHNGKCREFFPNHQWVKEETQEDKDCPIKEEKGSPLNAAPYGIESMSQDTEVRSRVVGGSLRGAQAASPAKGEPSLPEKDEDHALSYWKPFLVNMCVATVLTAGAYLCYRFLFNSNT
# EXPERIMENT_NOTES: Colorimetric pNPP assay of inhibition against PTP1B;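 note: colorimetric inhibition readout run in 96-well plates, with PTP1B and TCPTP both tested in the same assay format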
# Type: biochemical
# CONDITION_INFO: means ± SD of three replications; pNPP substrate, pH 6.5, 30 °C; read-out: IC50 PTP1B (Table 2)
Give bare numbers, in µM.

Example entries and their recorded answers appear below.
CHEM_SMILES | MEASURED_QUANTITY | QUANTITATIVE_READOUT
COc1ccccc1-c1cc(COc2ccc(/C=C/c3cccc(C(=O)O)c3)cc2)no1 | IC50 | 7.66
O=C(O)c1cccc(/C=C/c2ccc(OCc3cc(-c4ccccc4Cl)on3)cc2)c1 | IC50 | 1.75
O=C(O)c1cccc(/C=C/c2ccc(OCc3cc(-c4cccc(Cl)c4)on3)cc2)c1 | IC50 | 5.37

Return reported IC50 values for all items listed beneath this line.
1. COc1ccc(-c2cc(COc3ccc(/C=C/c4cccc(C(=O)O)c4)cc3)no2)cc1
2. O=C(O)c1cccc(/C=C/c2ccc(OCc3cc(-c4ccc(F)cc4)on3)cc2)c1
3. O=C(O)c1cccc(/C=C/c2ccc(OCc3cc(-c4cccc(Br)c4)on3)cc2)c1

Resp:
1. 2.23
2. 3.34
3. 9.85

Values compiled from paper PMC6274251.
